Entry source: patent US9604923B2

# Target: Stat5:5
# Measurement notes: STATs DNA-binding activity in vitro, EMSA with MGFe probe
# Design: species or system mouse
# Measurement parameters: Table 4; listed as 74859; read-out: IC50 values for the inhibition of STATs DNA-binding activity in vitro, Stat5:5
Readout type: IC50 (µM)
Give just the numeric value; µM need not be written.

IC50 measured on Cc1ccc(S(=O)(=O)OCC(=O)Nc2ccc(C(=O)O)c(O)c2)cc1 = 166

---

# Target: Stat5:5
# Measurement notes: STATs DNA-binding activity in vitro, EMSA with MGFe probe
# Design: species or system mouse
# Measurement parameters: Table 4; read-out: IC50 values for the inhibition of STATs DNA-binding activity in vitro, Stat5:5
Readout type: pIC50
The quantity pIC50 is defined as the negative base-10 logarithm of the molar concentration.

For record O=C(/C=C/c1ccccc1)NC(=S)Nc1ccc(C(=O)O)cc1 the listed pIC50 is 3.59

The compound listed as O=C1c2ccccc2-c2ccc(N(Cc3ccc([N+](=O)[O-])cc3)Cc3ccc([N+](=O)[O-])cc3)cc21 shows pIC50 equal to 3.63

Kindly note the recorded pIC50 for O=C1C=C(Nc2ccc(S(=O)(=O)Nc3ccccn3)cc2)C(=O)C=C1Nc1ccc(S(=O)(=O)Nc2ccccn2)cc1 , which is 3.66
